Ref: paper PMC9964390

test: PBMC viability assay (72 h MTT); format: cell-based, human; settings: human, PBMC, 30 µM (printed 30M), read-out: % cell viability
recorded_endpoint: viability at 72 h, 30 µM (%)
Give bare numbers, in %.

Query: Looking for the measured viability at 72 h, 30 µM of c1ccc(N2CCN(c3nc(N4CCCNCC4)nc(N4CCOCC4)n3)CC2)cc1 [5f] , can you help?
Reply: 75

###

test: Microsomal metabolic stability; type: in vitro ADME; conditions: rat, liver microsomes
recorded_endpoint: half-life at 10 μM

Query: Requested field: half-life at 10 μM. Item: c1ccc(N2CCN(c3nc(N4CCCNCC4)nc(N4CCOCC4)n3)CC2)cc1
Reply: > 6 h

###

assay: PBMC viability assay (72 h MTT); assay type: cell-based, human; conditions: human, PBMC, 3 µM (printed 3M), read-out: % cell viability
recorded_endpoint: viability at 72 h, 3 µM (%)
One number for each entry, in %.

Query: May I ask what viability at 72 h, 3 µM has been recorded for c1ccc(N2CCN(c3nc(N4CCCNCC4)nc(N4CCOCC4)n3)CC2)cc1 ?
Reply: 91

###

test: PBMC viability assay (72 h MTT); format: cell-based, human; conditions: human, PBMC, 0.3 µM (printed 0.3M), read-out: % cell viability
recorded_endpoint: viability at 72 h, 0.3 µM (%)
Give bare numbers, in %.

Query: Recorded viability at 72 h, 0.3 µM of c1ccc(N2CCN(c3nc(N4CCCNCC4)nc(N4CCOCC4)n3)CC2)cc1 , please.
Reply: 88
